Sourced from ChEMBL document CHEMBL4014346

Biological target: CYP2D6 (Homo sapiens)
Sequence (P10635 whole entry): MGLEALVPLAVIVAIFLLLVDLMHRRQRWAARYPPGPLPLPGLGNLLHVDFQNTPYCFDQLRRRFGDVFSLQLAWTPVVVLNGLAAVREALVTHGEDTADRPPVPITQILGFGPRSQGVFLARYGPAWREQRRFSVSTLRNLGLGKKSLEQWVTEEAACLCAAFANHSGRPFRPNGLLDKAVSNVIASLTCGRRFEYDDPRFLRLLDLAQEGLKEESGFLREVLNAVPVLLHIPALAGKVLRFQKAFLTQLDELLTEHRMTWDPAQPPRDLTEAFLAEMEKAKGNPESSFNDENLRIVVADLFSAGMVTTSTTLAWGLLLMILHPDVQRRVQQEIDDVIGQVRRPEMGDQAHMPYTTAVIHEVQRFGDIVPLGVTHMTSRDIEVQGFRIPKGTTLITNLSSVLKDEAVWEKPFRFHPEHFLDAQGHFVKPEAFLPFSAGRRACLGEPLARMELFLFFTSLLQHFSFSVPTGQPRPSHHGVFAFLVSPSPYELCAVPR
Experiment: Inhibition of recombinant human CYP2D6 expressed in baculovirus infected insect cell microsomes at 1 uM relative to control
Type: ADME
REPORTED_PROPERTY: inhibition at 1 µM (%)
Numbers only, in %.

- SMI: "COc1cncc(Cc2cc(-c3ccccc3)no2)c1"
  REPORTED_PROPERTY: "inhibition at 1 µM"
  NUMBER: 8

Here's the next entry for you.
Checklist item: inhibition at 1 µM tested on CYP2D6 (Homo sapiens), entry Cc1cncc(Cc2cc(-c3ccccc3)no2)c1 , value?
0

====

Please go through the items and note down their inhibition at 1 µM.
Molecular target: CYP3A4 (Homo sapiens)
Sequence (P08684 whole entry): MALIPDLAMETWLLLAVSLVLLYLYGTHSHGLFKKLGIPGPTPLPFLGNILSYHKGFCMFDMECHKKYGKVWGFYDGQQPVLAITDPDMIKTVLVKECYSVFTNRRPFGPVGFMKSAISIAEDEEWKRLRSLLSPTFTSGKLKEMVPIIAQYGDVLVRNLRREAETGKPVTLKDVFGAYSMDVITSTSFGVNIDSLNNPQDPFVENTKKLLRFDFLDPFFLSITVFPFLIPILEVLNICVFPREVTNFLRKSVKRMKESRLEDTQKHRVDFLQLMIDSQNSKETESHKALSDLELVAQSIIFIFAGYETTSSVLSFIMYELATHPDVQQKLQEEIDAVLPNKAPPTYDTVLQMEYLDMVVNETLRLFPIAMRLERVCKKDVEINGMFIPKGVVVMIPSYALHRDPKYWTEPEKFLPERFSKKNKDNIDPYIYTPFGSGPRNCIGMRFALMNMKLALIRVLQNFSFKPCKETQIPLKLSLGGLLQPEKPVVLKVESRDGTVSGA
Assay: Inhibition of recombinant human CYP3A4 expressed in baculovirus infected insect cell microsomes at 1 uM relative to control
Format: ADME
Give bare numbers, in %.

- SMI: "COc1cncc(Cc2cc(-c3ccccc3)no2)c1"
  ASSAYED_SYSTEM: "CYP3A4 (Homo sapiens)"
  UNIT_ABBREV: "%"
  inhibition at 1 µM: 33

Consider the record given below.
Value lookup for inhibition at 1 µM; key = Cc1cncc(Cc2cc(-c3ccccc3)no2)c1
61
